Target: T1, mouse SIRPβ1 on CHO cells (mouse)
T1 construct: Whole entry
T1 chain: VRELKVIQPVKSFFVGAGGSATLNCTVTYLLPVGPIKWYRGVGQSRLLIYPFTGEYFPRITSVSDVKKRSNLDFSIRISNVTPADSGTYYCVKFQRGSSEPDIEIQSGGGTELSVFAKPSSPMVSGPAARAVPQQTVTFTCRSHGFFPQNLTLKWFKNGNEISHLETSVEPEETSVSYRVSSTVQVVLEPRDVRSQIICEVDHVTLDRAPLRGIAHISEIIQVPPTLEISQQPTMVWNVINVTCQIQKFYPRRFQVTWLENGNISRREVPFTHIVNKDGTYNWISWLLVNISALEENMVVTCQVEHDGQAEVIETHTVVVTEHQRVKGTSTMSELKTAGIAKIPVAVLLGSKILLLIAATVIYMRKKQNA
Test: flow cytometry;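 further: antibodies tested at 1 µg/ml for 30 min on ice against receptor-expressing cells, detected with a PE-labelled secondary antibody, read as mean fluorescence intensity relative to background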
Assay Metric: FOB (fold over background)
Give your result in fold over background as a bare value.

Report measured FOB; entry is SB-39 (antibody, V domains shown, IgG) VH: QVQLQESGPGLVKPSETLSLTCAVSGYSISSGYYWAWIRQPPGKGLEWIGSIYHSGSTYYNPSLKSRVTISVDTSKNQFSLKLSSVTAADTAVYYCARGGSNYGDYGRFDYWGQGTLVTVSS VL: DIQMTQSPSSLSASVGDRVTITCRASQSISSYLNWYQQKPGKAPKLLIYGASSLQSGVPSRFSGSGSGTDFTLTISSLQPEDFATYYCQQSYDFPLTFGGGTKVEIK
1.4

Report measured FOB; entry is SB-45 (antibody, V domains shown, IgG) VH: QVQLQESGPGLVKPSETLSLTCAVSGYSISSGYYWAWIRQPPGKGLEWIGSIYHSGSTYYNPSLKSRVTISVDTSKNQFSLKLSSVTAADTAVYYCARDLSRGYAVSGMDVWGQGTTVTVSS VL: VLTQSPGTLSLSPGERATLSCRASQSVSSSFLAWYQQKPGQAPRLLIYGASSRATGIPDRFSGSGSGTDFTLTISRLEPEDFAVYYCQQVVSVPTFGGGTKVEIK
1.4

Report measured FOB; entry is SB-2 (antibody, V domains shown, IgG; also called SB-2 (p)) VH: QVQLVESGGGVVQPGRSLRLSCAASGFTFSSYGMNWVRQAPGKGLEWVAVIWYDGSNKYYADSVKGRFTISRDNSKNTLYLQMNSLRAEDTAVYYCARDQTAAAAIWGMDVWGQGTTVTVSS VL: EIVLTQSPGTLSLSPGERATLSCRASQSVSSSYLAWYQQKPGQAPRLLIYGASSRATGIPDRFSGSGSGTDFTLTISRLEPEDFAVYYCQQSSSHPFTFGGGTKVEIK
1.3

Report measured FOB; entry is SB-24 (antibody, V domains shown, IgG) VH: QVQLQESGPGLVKPSETLSLTCAVSGYSISSGYYWAWIRQPPGKGLEWIGSIYHSGSTYYNPSLKSRVTISVDTSKNQFSLKLSSVTAADTAVYYCARDRSRGYPVYGMDVWGQGTTVTVSS VL: EIVMTQSPATLSVSPGERATLSCRASQSVSSNLAWYQQKPGQAPRLLIYGASTRATGIPARFSGSGSGTEFTLTISSLQSEDFAVYYCQQLNIHPWTFGGGTKVEIK
1.3

The reported numbers originate from patent US20250026827A1.
